test system: Wolbachia pipientis; assay: Anti-Wolbachia Cell-Based Screen; assay type: functional; parameters: scale not given: in the data most compounds retested in dose-response had high values; conditions: 5 µM
The campaign covered roughly 48,000 compounds. About 13,000 (27%) showed an effect of 50% or more. This is one part of the list.
Reported Percent Effect values for a set of compounds
Number only, in %; omit the unit.

smiles_record: CC(C)[C@@H]1CN(S(=O)(=O)Cc2ccccc2)C[C@H]1NS(=O)(=O)N(C)C
readout_kind: Percent Effect
unit_name: %
measured_number: -33.69
//
smiles_record: Cc1noc(C)c1CN1C[C@@H](NC(=O)N(C)C)[C@H](C(C)C)C1
readout_kind: Percent Effect
unit_name: %
measured_number: -17.12
//
smiles_record: COc1ccnc(N2C[C@@H](NS(=O)(=O)N(C)C)[C@H](C(C)C)C2)n1
readout_kind: Percent Effect
unit_name: %
measured_number: 1.494
//
smiles_record: CC(C)[C@@H]1CN(c2ccc(F)cn2)C[C@H]1NS(C)(=O)=O
readout_kind: Percent Effect
unit_name: %
measured_number: -10.09

Now, please, on to the next compound.
Challenge: Query: Percent Effect; subject: CN(C)CCOc1ccc(CNC(=O)c2cccc(Cl)c2Cl)cc1
Response given: 13.68
